Ref: patent US9938257B2

Procedure Details: Pharmacokinetics after intravenous and oral administration in rats
Type: in vivo
Experimental Parameters: oral bioavailability, iv dose 1 mg/kg
Label T when F is at or above 40%; otherwise label F.

{"Compound": "Cn1cc(Nc2ncc(Cl)c(NC3CC4CN(c5ccc(C#N)nn5)CC4C3)n2)cn1 (centres unmarked)", "Group": "T"}
{"Compound": "CC(O)Cn1cc(Nc2ncc(Cl)c(NC3CC4CN(S(=O)(=O)C5CC5)CC4C3)n2)cn1 (centres unmarked)", "Group": "F"}
{"Compound": "COc1ccc(-n2cc(Nc3ncc(Cl)c(NC4CC5CN(C(C)=O)CC5C4)n3)cn2)cn1 (centres unmarked)", "Group": "F"}
{"Compound": "CC(=O)N1CC2CC(Nc3nc(Nc4cnn(-c5ccccn5)c4)ncc3Cl)CC2C1 (centres unmarked)", "Group": "F"}
{"Compound": "Cn1cc(Nc2ncc(Cl)c(NC3CC4CN(S(=O)(=O)CC5CC5)CC4C3)n2)cn1 (centres unmarked)", "Group": "F"}
{"Compound": "Cn1cc(Nc2ncc(Cl)c(NC3CC4CN(S(=O)(=O)NC5CC5)CC4C3)n2)cn1 (centres unmarked)", "Group": "T"}

###

Procedure Details: Pharmacokinetics after intravenous and oral administration in rats
Format: in vivo
Experimental Parameters: rat, plasma, iv dosing, dose 1 mg/kg
Measured Parameter: half-life (min)

{"Molecule": "CC(=O)N1CC2CC(Nc3nc(Nc4cnn(CC(C)(C)O)c4)ncc3Cl)CC2C1 (stereo not drawn) [Ex. 1]", "Measured Parameter": "half-life", "Output Unit": "min", "Result": 38.4}
{"Molecule": "Cn1cc(Nc2ncc(Cl)c(NC3CC4CN(S(=O)(=O)NC5CC5)CC4C3)n2)cn1 (stereo not drawn) [Ex. 34]", "Measured Parameter": "half-life", "Output Unit": "min", "Result": 17.4}
{"Molecule": "Cn1cc(Nc2ncc(Cl)c(NC3CCC4(CC3)CCN(S(=O)(=O)C3CC3)CC4)n2)cn1", "Measured Parameter": "half-life", "Output Unit": "min", "Result": 37.2}
{"Molecule": "Cn1cc(Nc2ncc(Cl)c(NC3CC4CN(C(=O)c5ccccc5)CC4C3)n2)cn1 (stereo not drawn) [Ex. 27]", "Measured Parameter": "half-life", "Output Unit": "min", "Result": 13.2}
{"Molecule": "CCNS(=O)(=O)N1CC2CC(Nc3nc(Nc4cnn(C)c4)ncc3Cl)CC2C1 (stereo not drawn) [Ex. 24]", "Measured Parameter": "half-life", "Output Unit": "min", "Result": 24}
{"Molecule": "CC(O)Cn1cc(Nc2ncc(Cl)c(NC3CC4CN(S(=O)(=O)CC5CC5)CC4C3)n2)cn1 (stereo not drawn) [Ex. 46]", "Measured Parameter": "half-life", "Output Unit": "min", "Result": 15.6}
{"Molecule": "Cn1cc(Nc2ncc(Cl)c(NC3CC4CN(C(=O)N5CCOCC5)CC4C3)n2)cn1 (stereo not drawn) [Ex. 29]", "Measured Parameter": "half-life", "Output Unit": "min", "Result": 21}
{"Molecule": "CCNS(=O)(=O)N1CC2CC(Nc3nc(Nc4cnn(CC(C)O)c4)ncc3Cl)CC2C1 (stereo not drawn) [Ex. 45]", "Measured Parameter": "half-life", "Output Unit": "min", "Result": 39.6}
{"Molecule": "CC(O)Cn1cc(Nc2ncc(Cl)c(NC3CC4CN(S(=O)(=O)NC5CC5)CC4C3)n2)cn1 (stereo not drawn) [Ex. 47]", "Measured Parameter": "half-life", "Output Unit": "min", "Result": 42.6}
